Biological target: Glycogen synthase kinase-3 alpha (Homo sapiens)
Experiment: concentration-response blocking of human GSK3A – biochemical, luminescence, cell-free homogeneous, retest, dose response (AID 463203)
Settings: GSK-3 alpha enzyme, ADP-Glo luminescence, 60 min
Activity calls are given as the source filed them.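 The calls were made as follows: active = more than half of replicate measurements showing over 20% loss of kinase signal relative to plate controls; inconclusive = some but at most half of replicates over 20% loss; inactive = no replicate over 20% signal loss.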
Your response should consist of one outcome taken from active, inactive

molecule="Cc1ccc(N2CC(C(=O)Nc3ncc([N+](=O)[O-])s3)CC2=O)cc1 (stereo unspecified)" label_class=active
molecule=Cc1occc1C(=O)N/N=C/c1ccc(N(C)C)cc1 label_class=active
molecule=Cc1ccc(/C=N/NC(=O)c2nnn(-c3nonc3N)c2CN(C)C2CCCCC2)cc1 label_class=inactive
molecule="CCc1ccc(C2CC(c3ccc(F)cc3)Nc3nc(N)nn32)cc1 (stereo unspecified)" label_class=inactive
molecule=c1csc(CNc2ncnc3sccc23)c1 label_class=inactive

query: Kindly provide the recorded test outcome for the following molecule: COC(=O)/C=C1/S/C(=N/NC(=O)c2ccccc2OC)NC1=O
result: inactive

* * *

Biological target: Glycogen synthase kinase-3 alpha (Homo sapiens)
Assay: concentration-response blocking of human GSK3A – biochemical, luminescence, cell-free homogeneous, retest, dose response (AID 463203)
Conditions: GSK-3 alpha enzyme, ADP-Glo luminescence, 60 min
Calls of active or inactive are those of the source.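 The calls were made as follows: active = more than half of replicate measurements showing over 20% loss of kinase signal relative to plate controls; inconclusive = some but at most half of replicates over 20% loss; inactive = no replicate over 20% signal loss.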
Your response should consist of one outcome taken from active, inactive

Some solved cases for reference:
compound="CCOc1ccc(C2C3=C(CCCC3=O)Nc3ccc4ncccc4c32)cc1 (stereo unspecified)" system_name="Glycogen synthase kinase-3 alpha (Homo sapiens)" label_class=inactive
compound=CCCCOC(=O)CNc1n[nH]c(=S)[nH]c1=O system_name="Glycogen synthase kinase-3 alpha (Homo sapiens)" label_class=inactive
compound=COc1ccc(OCC(=O)Nc2ccc3c(c2)C(=O)NC3=O)cc1 system_name="Glycogen synthase kinase-3 alpha (Homo sapiens)" label_class=active
compound=CCOC(=O)N1CCN(C(=O)CSc2ccc3nnc(-c4ccccn4)n3n2)CC1 system_name="Glycogen synthase kinase-3 alpha (Homo sapiens)" label_class=inactive

query: Kindly provide the recorded test outcome for the following compound: CN(C)/C=C/c1c([N+](=O)[O-])c2ccc(O)cc2n1-c1ccccc1
result: active

query: Note, next up: O=C(CN(Cc1ccc(F)cc1)C(=O)CCC(=O)Nc1nccs1)NCc1ccc(F)cc1
result: active

query: Note, next up: COc1ccccc1/C=N/NC(=O)c1ccccc1Cl
result: inactive

query: Note, next up: CN1/C(=C\C=C(C#N)C#N)C(C)(C)c2ccccc21
result: inactive

query: Note, next up: COc1cccc(CNc2nc(C(F)(F)F)nc3ccccc23)c1
result: inactive

query: Note, next up: COCC(O)CSc1nc(C)[nH]c1[N+](=O)[O-] (stereo unspecified)
result: inactive

query: Note, next up: C=CCc1cccc(/C=N/n2c(C)nnc2C)c1O
result: inactive

* * *

Target: Glycogen synthase kinase-3 alpha (Homo sapiens) (UniProt P49840)
Sequence (P49840 whole entry, looked up): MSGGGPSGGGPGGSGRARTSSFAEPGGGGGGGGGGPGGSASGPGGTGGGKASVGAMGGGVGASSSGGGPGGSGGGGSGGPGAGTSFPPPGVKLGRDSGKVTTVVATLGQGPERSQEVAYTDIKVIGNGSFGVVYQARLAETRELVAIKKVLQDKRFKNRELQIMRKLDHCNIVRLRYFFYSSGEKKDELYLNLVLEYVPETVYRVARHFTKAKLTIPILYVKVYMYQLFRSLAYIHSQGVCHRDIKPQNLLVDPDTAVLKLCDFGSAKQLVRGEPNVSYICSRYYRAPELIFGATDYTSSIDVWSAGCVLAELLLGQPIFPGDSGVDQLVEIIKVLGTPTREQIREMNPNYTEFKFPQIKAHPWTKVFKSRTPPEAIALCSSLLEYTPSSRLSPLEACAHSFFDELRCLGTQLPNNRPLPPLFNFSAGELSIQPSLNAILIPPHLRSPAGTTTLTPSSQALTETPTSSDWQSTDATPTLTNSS
Test: concentration-response blocking of human GSK3A – biochemical, luminescence, cell-free homogeneous, retest, dose response (AID 463203)
Settings: GSK-3 alpha enzyme, ADP-Glo luminescence, 60 min
The source made the active and inactive calls.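 How the source made its calls: active means more than half of replicate measurements showing over 20% loss of kinase signal relative to plate controls; inconclusive means some but at most half of replicates over 20% loss; inactive means no replicate over 20% signal loss.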
Your response should consist of one outcome taken from active, inactive

Some solved cases for reference:
compound="COc1ccccc1C(CNc1ccc(S(=O)(=O)N2CCCC2)cc1[N+](=O)[O-])N(C)C (stereo not drawn)" label_class=inactive
compound=CCCN(CCC)Cc1c(C(=O)N/N=C/C(C)=C\c2ccco2)nnn1-c1nonc1N label_class=inactive

query: Kindly provide the recorded test outcome for the following compound: Cc1cccc(/C(N)=N/OC(=O)c2ccc3c(c2)OCO3)c1
result: active

query: Note, next up: CCc1c(C)sc(NC(=O)C2CC2c2ccccc2)c1C(N)=O (stereo not drawn)
result: inactive

query: Note, next up: Nc1nonc1-n1nnc(C(=O)N/N=C/c2ccc(Cl)cc2Cl)c1CN1CCOCC1
result: inactive

query: Note, next up: CN(C)CCCNS(=O)(=O)c1ccc(-n2nnc3ccccc32)c([N+](=O)[O-])c1
result: inactive

query: Note, next up: Cc1cccc(NC(=O)COC(=O)c2ccccn2)c1
result: inactive

query: Note, next up: Cc1ccc(N=Nc2c(O)ccc3n[nH]nc23)cc1
result: active

query: Note, next up: Cc1cccc(C)c1OCC(O)CNC(C)(C)C (stereo not drawn)
result: inactive

query: Note, next up: CCOc1cccc(-c2c(C(=O)N/N=C/c3sccc3C)nnn2-c2nonc2N)c1
result: inactive

query: Note, next up: Nc1c(CO)nnn1-c1ccccc1
result: active

query: Note, next up: O=C(c1ccc(Cn2cnnn2)cc1)N1CCCC(Nc2ccc(F)cc2)C1 (stereo not drawn)
result: active

* * *

Molecular target: Glycogen synthase kinase-3 alpha (Homo sapiens) (UniProt P49840)
Experiment: concentration-response blocking of human GSK3A – biochemical, luminescence, cell-free homogeneous, retest, dose response (AID 463203)
Conditions: GSK-3 alpha enzyme, ADP-Glo luminescence, 60 min
Active and inactive are the calls of the source.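 How the source made its calls: active means more than half of replicate measurements showing over 20% loss of kinase signal relative to plate controls; inconclusive means some but at most half of replicates over 20% loss; inactive means no replicate over 20% signal loss.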
Your response should consist of one outcome taken from active, inactive

Some solved cases for reference:
given_smiles=Brc1cccc(CSc2nnc(-c3ccncc3)o2)c1 label_class=active
given_smiles=COc1cc(/C=N/NC(=O)c2cnccn2)ccc1O label_class=inactive
given_smiles=Cc1c(C(=O)N2CCOCC2)oc2ccc(S(=O)(=O)N3CCCC3)cc12 label_class=inactive
given_smiles=Fc1ccc(-c2nnc3ccc(N4CCCC4)nn23)cc1 label_class=active
given_smiles=COc1ccccc1C(=O)NNC(=O)c1cccc(Cl)c1 label_class=inactive

query: Kindly provide the recorded test outcome for the following compound: COc1cccc(/C=N/n2cncn2)c1OCC#N
result: inactive

* * *

Molecular target: UniProtKB P49840
Experiment: concentration-response blocking of human GSK3A – biochemical, luminescence, cell-free homogeneous, retest, dose response (AID 463203)
Conditions: GSK-3 alpha enzyme, ADP-Glo luminescence, 60 min
Calls of active or inactive are those of the source.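 How the source made its calls: active means more than half of replicate measurements showing over 20% loss of kinase signal relative to plate controls; inconclusive means some but at most half of replicates over 20% loss; inactive means no replicate over 20% signal loss.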
Your response should consist of one outcome taken from Y for active, N for inactive

Some solved cases for reference:
molecule=O=[N+]([O-])c1ccccc1-c1cc(-c2ccccc2O)n[nH]1 system_name="UniProtKB P49840" label_class=N
molecule=C/C(=C/c1oc2ccc(O)cc2c1[N+](=O)[O-])N(C)C system_name="UniProtKB P49840" label_class=N

query: Kindly provide the recorded test outcome for the following molecule: Cc1cc(C)c(OCC(O)CNC(C)(C)C)c(C)c1 (configuration not stated)
result: N

query: Note, next up: Cc1cc(=O)[nH]c2c(C)c(Cl)ccc12
result: N

* * *

Target: Glycogen synthase kinase-3 alpha (Homo sapiens) (UniProt P49840)
Experiment: concentration-response blocking of human GSK3A – biochemical, luminescence, cell-free homogeneous, retest, dose response (AID 463203)
Conditions: GSK-3 alpha enzyme, ADP-Glo luminescence, 60 min
The source made the active and inactive calls.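 The calls were made as follows: active = more than half of replicate measurements showing over 20% loss of kinase signal relative to plate controls; inconclusive = some but at most half of replicates over 20% loss; inactive = no replicate over 20% signal loss.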
Your response should consist of one outcome taken from 1 for active, -1 for inactive

Some solved cases for reference:
compound=CCN=C1S/C(=C/c2ccc(-c3ccc(Cl)cc3C(=O)O)o2)C(=O)N1CC label_class=1
compound=CCN(C(=O)CN1CCCCCC1)c1c(N)n(Cc2ccccc2)c(=O)[nH]c1=O label_class=-1
compound="COc1ccccc1N1CC(C(=O)Nc2nc(C)cs2)CC1=O (stereo unspecified)" label_class=-1
compound=CC(=O)Nc1ccc(Oc2ccc3c(c2)C(=O)NC3=O)cc1 label_class=1

query: Kindly provide the recorded test outcome for the following compound: CC(C)(C)N1C(=O)c2ccc(C(=O)O)cc2C1=O
result: -1

query: Note, next up: Cc1ccc2nc(Cl)c(/C=N/Nc3ccc(C(=O)O)cc3)cc2c1
result: -1

query: Note, next up: Cc1ccccc1Cn1c(-c2ccc(=O)[nH]c2)nc2ccccc21
result: -1

* * *

Molecular target: Glycogen synthase kinase-3 alpha (Homo sapiens)
Test: concentration-response blocking of human GSK3A – biochemical, luminescence, cell-free homogeneous, retest, dose response (AID 463203)
Conditions: GSK-3 alpha enzyme, ADP-Glo luminescence, 60 min
The source made the active and inactive calls.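 Rule for the calls: active = more than half of replicate measurements showing over 20% loss of kinase signal relative to plate controls; inconclusive = some but at most half of replicates over 20% loss; inactive = no replicate over 20% signal loss.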
Your response should consist of one outcome taken from yes (active), no (inactive)

Some solved cases for reference:
molecule=O=C(c1ccc2c3n(nc2c1)-c1ccc(Cl)cc1CO3)N1CCCCC1 label_class=no
molecule=C=CCNC(=S)N1CCN(c2cccc(C(F)(F)F)c2)CC1 label_class=no
molecule=c1cc2[nH]snc2c2nc(C3CC3)nc12 label_class=yes
molecule="N#CC1=C2SCN(c3ccccc3)CN2C(=O)CC1c1c(Cl)cccc1Cl (stereo not drawn)" label_class=no
molecule="CCOC(=O)c1[nH]c2c(c1-c1ccccc1)C(=O)CC(c1ccccc1)C2 (stereo not drawn)" label_class=no
molecule=CCc1cc(C(=O)c2ccc(OC)cc2)c(NC(=O)COCC(=O)O)s1 label_class=no

query: Kindly provide the recorded test outcome for the following molecule: O=C1/C(=C/c2cccc([N+](=O)[O-])c2)N2CCC1CC2
result: no

query: Note, next up: Cc1cc(C)nc(NC(=O)c2ccc(Br)s2)n1
result: no

query: Note, next up: CSc1ccc(-c2cc(=O)c3ccccc3o2)cc1
result: no

query: Note, next up: O=C1Nc2ccccc2C1(O)c1ccccc1O (stereo not drawn)
result: no

query: Note, next up: Cc1ccc(OCC(=O)NNC(=O)C(C)Sc2ncnc3sc(C)c(C)c23)cc1 (stereo not drawn)
result: no

query: Note, next up: CCOC(=O)c1sc(NC(=O)C2CC2)nc1C
result: yes

query: Note, next up: CSc1cccc(NC(=O)CN(C)S(=O)(=O)c2cnc[nH]2)c1
result: no

query: Note, next up: O=c1[nH]c(CN2CCN(CCO)CC2)nc2ccccc12
result: no

query: Note, next up: COc1cccc(CCNC(=O)c2cc(COc3c(F)cccc3F)on2)c1
result: no

query: Note, next up: COc1ccc(Nc2ccc(S(=O)(=O)N3CCCCC3)cc2[N+](=O)[O-])cc1OC
result: no

query: Note, next up: Nc1nnc(SCC(=O)Nc2sc3c(c2C(=O)c2ccccc2)CCCC3)s1
result: no

query: Note, next up: NS(=O)(=O)c1ccc(Nc2nc(-c3ccc(F)cc3)cs2)cc1
result: yes

query: Note, next up: CN(C)Cc1c(C(=O)N/N=C/C=C/c2ccccc2)nnn1-c1nonc1N
result: yes

query: Note, next up: CC(=O)Nc1ncc(Cc2cccc(Cl)c2Cl)s1
result: no

query: Note, next up: Cc1[nH]nc2c1C(c1ccsc1)C1=C(CC(C)(C)CC1=O)N2 (stereo not drawn)
result: yes

query: Note, next up: COc1cc(C2C(C#N)=C(N)Oc3n[nH]c(-c4cccs4)c32)cc(OC)c1O (stereo not drawn)
result: no

query: Note, next up: COc1ccc(-c2cc(C(=O)N3CCN(c4ccccc4)CC3)no2)cc1OC
result: no
